Biological target: human α2δ-1 subunit of Cav2.2 calcium channel (Homo sapiens, UniProt P54289)
Sequence (P54289 25-1103): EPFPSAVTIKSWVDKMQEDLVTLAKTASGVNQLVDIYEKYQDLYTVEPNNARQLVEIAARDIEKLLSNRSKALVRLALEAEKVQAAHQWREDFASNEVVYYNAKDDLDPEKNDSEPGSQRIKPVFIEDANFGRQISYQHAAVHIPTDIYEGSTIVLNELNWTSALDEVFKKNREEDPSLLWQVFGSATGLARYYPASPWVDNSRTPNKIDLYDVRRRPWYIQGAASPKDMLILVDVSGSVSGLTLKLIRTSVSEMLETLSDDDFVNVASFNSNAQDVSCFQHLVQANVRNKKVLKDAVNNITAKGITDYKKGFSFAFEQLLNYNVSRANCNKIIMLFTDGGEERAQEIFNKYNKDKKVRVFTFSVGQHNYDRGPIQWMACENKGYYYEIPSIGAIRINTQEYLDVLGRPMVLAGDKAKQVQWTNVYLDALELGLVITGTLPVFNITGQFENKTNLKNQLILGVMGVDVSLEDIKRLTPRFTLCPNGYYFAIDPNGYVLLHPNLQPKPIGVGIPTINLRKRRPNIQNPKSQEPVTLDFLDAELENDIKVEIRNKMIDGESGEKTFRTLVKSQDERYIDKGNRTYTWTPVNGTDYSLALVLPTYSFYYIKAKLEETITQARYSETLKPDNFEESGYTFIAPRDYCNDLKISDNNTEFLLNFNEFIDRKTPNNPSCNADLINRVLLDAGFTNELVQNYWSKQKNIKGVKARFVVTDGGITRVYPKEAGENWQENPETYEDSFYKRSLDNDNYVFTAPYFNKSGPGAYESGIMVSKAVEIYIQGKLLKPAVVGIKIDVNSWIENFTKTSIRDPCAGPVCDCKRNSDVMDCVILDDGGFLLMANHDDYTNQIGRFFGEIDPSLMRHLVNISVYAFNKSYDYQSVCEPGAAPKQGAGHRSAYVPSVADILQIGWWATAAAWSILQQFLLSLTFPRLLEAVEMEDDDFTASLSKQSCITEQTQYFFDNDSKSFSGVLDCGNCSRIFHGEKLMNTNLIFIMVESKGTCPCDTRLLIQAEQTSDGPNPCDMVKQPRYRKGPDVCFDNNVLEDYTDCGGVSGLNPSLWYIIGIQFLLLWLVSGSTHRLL
Assay: Binding assay to human α2δ-1 subunit of Cav2.2 calcium channel ([3H]-Gabapentin)
Conditions: [3H]-Gabapentin 15 nM, human α2δ-1 enriched membranes
Assay Readout: Ki

Example compounds with recorded Ki:
• CCNc1ncc2c(n1)N(C)CCN(Cc1ccc(O[C@@H](CCNC)c3cccc(F)c3)cc1F)C2=O = < 100 nM
• CNCC[C@H](Oc1ccc(CN2CCN(C)c3ccncc3C2=O)c(F)c1)c1ccccc1 = < 100 nM
• CCNc1ncc2c(n1)N(C)CCN(Cc1ccc(O[C@H](CCNC)c3cccc(F)c3)cc1F)C2=O = ≥ 3000 nM
• CNCC[C@H](Oc1ccc(CN2CCN(C)c3ccncc3C2=O)c(C)c1)c1ccccc1 = 100 to 500 nM
• CNCC[C@H](Oc1ccc(CN2CCN(C)c3nc(N)ncc3C2=O)c(F)c1)c1ccccc1 = < 100 nM

Request: # Ki lookup, item `CNCC[C@H](Oc1ccc(CN2CCN(C)c3cc(OC)ncc3C2=O)c(F)c1)c1ccccc1`
Result: < 100 nM

Request: # Ki lookup, item `CCNc1ncc2c(n1)N(C)CCN(Cc1ncc(O[C@@H](CCNC)c3cccc(F)c3)cc1F)C2=O`
Result: < 100 nM

Request: # Ki lookup, item `CNCC[C@H](Oc1cnc(CN2CCN(C)c3nc(N)ncc3C2=O)c(F)c1)c1cccc(F)c1`
Result: < 100 nM

Request: # Ki lookup, item `CNCC[C@H](Oc1ccc(CN2CCN(C)c3nc(N)ncc3C2=O)c(Cl)c1)c1ccccc1`
Result: < 100 nM

Request: # Ki lookup, item `CNCC[C@H](Oc1ccc(CN2CCN(C)c3ncncc3C2=O)c(C)c1)c1ccccc1`
Result: < 100 nM

Request: # Ki lookup, item `CCNc1ncc2c(n1)N(C)CCN(Cc1ccc(O[C@@H](CCNC)c3ccccc3)cc1Cl)C2=O`
Result: < 100 nM

Request: # Ki lookup, item `CNCC[C@H](Oc1ccc(CN2CCN(C)c3nc(OC)ncc3C2=O)c(F)c1)c1ccccc1`
Result: < 100 nM

Request: # Ki lookup, item `CNCC[C@H](Oc1cnc(CN2CCN(C)c3cc(OC)ncc3C2=O)c(F)c1)c1cccs1`
Result: < 100 nM

Request: # Ki lookup, item `CNCC[C@H](Oc1ccc(CN2CCN(C)c3nc(OC)ncc3C2=O)c(C)c1)c1ccccc1`
Result: < 100 nM

Request: # Ki lookup, item `CNCC[C@H](Oc1ccc(CN2CCN(C)c3ncncc3C2=O)c(F)c1)c1ccccc1`
Result: < 100 nM
